Reference source for all entries: ChEMBL document CHEMBL4265964

Test system: A549
Test: Cytotoxicity against human A549 cells after 48 hrs by MTT assay
Format: functional, cell-based
Conditions: A549, 48 h
Listed below: IC50 values for each entry.
Please state the figure in µM; there is no need to write the unit.

>  <molecule>
COc1cc([C@@H]2c3cc4c(cc3[C@@H](C3CC(c5ccncc5)=CN3)[C@H]3COC(=O)[C@H]23)OCO4)cc(OC)c1O (stereo partly drawn)

>  <value-type>
IC50

>  <experimental-value>
2

$$$$

Kindly review the next molecule as well.
Query: // query IC50 value for entry `COc1cc([C@@H]2c3cc4c(cc3[C@@H](c3nc5cc(-c6ccccc6)ccc5s3)[C@H]3COC(=O)[C@H]23)OCO4)cc(OC)c1O`
Result: 5.7
